# TARGET SYSTEM: SARS-CoV-2 wild type spike protein (on reporter virus particles) (SARS-CoV-2, UniProt P0DTC2 14-1273)
# EXPERIMENT NOTES: cell-based or functional assay
Known PsV IC50, Test 1 of a selection of binders

Example cases with answers are listed next.
BINDER: A-9 (antibody, V domains shown) VH: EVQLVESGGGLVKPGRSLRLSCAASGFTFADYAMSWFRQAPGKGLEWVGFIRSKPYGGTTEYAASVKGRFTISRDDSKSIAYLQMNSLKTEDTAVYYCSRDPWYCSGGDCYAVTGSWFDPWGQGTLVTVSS VL: DIVLTQSPSSLSASVGDRVTITCQASQDIKKYLNWYQQKPGKAPKLLIYDVSNLETGVPSRFSGSGSGTDFTFTISSLQPEDVAIYYCQQYDNLPQTFGQGTKVDIK
PsV IC50, Test 1: 0.03 nM

BINDER: A-16 (antibody, V domains shown) VH: QVQLVESGGGLVQPGRSLRLSCAASGFTFDDYAMHWVRQAPGKGLEWVSGISWNSGTIGYADSVKGRFIISRDNAKNSLYLQMNSLRGEDMALYYCGKDRKREDPSLGGMDVWGQGTTVTVSS VL: SYELTQPPSVSVAPGQTARITCGGNNIGSKSVHWYQQKPGQAPVLVVYDDTDRPSGIPERFSGSNSGNTATLTISRVEAGDEADYYCQVWDSSSDHYVFGTGTKLTVL
PsV IC50, Test 1: 0.28 nM

BINDER: A-6 (antibody, V domains shown) VH: QVQLVQSGGGVVQPGRSLRLSCAASGFTFSNFAMHWVRQAPGKGLEWVAVILYDGINKYYADSVKGRFTISRGNSKNTLSLQMNSLRAEDTAVYYCARAQNYYDRSGTLQLDAFDIWGQGTMVTVSS VL: DIVMTQSPSSLSASVGDRVTITCRASQGIRNDLGWYQQKPGKAPKLLIYAASSLQSGVPSRFSGSGSGTDFTLTISSLQPEDFATYYCLQDYNYPLTFGGGTKVEIK
PsV IC50, Test 1: 0.12 nM

Below: the item to evaluate.
Lab note: A-18 (antibody, V domains shown) VH: EVQLLESGGGLVQPGGSLRLSCAASGFTFSRYWMHWVRQAPGKGLVWVSRINSDGSSTTYADSVKGRFTISRDNAKNTLYLQMNSLRAEDTAVYYCARELYYYDSRGAEEGEGWFDPWGQGTLVTVSS VL: QSVLTQPPSVSGAPGQRVTISCTGISSNIGAGYDVHWYQQLPGTAPKLLIYGNSNRPSGVPDRFSASKSGTSAPLAITGLQAEDEADYYCQSSDRSLSGSVFGTGTKLTVL gave PsV IC50, Test 1 of 0.14 nM
